molecular target: Vascular endothelial growth factor receptor 2 (Homo sapiens, UniProt P35968); experiment: Biochemical inhibition of phosphorylation of a poly-Glu/Tyr (4:1) peptide substrate by isolated vascular endothelial growth factor receptor 2 (cloned and expressed as a GST-fusion protein).
Sequence (P35968 whole entry, the tested form may be a part): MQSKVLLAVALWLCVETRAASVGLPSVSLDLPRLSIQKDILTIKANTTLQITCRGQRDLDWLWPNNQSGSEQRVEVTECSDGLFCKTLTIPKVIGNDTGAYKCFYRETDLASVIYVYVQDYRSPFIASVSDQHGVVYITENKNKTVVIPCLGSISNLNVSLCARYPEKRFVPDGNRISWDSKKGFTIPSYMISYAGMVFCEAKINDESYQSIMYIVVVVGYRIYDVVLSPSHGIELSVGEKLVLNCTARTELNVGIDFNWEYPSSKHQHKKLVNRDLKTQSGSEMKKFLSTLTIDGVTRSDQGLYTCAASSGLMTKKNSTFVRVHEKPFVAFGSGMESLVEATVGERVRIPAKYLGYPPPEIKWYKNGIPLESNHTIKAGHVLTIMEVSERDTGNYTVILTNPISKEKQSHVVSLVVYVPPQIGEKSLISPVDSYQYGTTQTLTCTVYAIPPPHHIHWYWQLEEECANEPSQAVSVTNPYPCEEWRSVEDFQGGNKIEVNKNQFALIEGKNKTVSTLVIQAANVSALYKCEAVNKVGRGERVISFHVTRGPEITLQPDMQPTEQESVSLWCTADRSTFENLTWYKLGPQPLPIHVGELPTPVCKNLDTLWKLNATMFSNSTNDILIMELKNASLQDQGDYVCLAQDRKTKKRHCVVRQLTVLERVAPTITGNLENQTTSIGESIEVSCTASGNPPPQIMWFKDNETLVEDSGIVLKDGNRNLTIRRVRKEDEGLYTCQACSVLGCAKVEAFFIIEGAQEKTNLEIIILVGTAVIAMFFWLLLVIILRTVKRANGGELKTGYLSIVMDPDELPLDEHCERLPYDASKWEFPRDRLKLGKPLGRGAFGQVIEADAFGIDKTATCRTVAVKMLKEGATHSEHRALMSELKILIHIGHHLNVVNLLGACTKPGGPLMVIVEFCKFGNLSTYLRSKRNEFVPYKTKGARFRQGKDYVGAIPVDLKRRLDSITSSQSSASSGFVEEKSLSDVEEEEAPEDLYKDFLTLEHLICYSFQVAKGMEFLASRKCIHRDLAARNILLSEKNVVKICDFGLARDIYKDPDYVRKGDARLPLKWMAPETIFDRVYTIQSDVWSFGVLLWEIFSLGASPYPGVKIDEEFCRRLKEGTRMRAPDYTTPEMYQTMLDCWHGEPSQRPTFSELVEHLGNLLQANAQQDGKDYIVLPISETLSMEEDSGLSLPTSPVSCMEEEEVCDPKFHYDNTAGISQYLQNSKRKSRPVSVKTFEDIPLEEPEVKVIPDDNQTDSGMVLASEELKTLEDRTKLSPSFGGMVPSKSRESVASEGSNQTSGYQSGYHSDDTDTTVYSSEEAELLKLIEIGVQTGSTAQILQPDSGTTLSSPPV
The class of a record is decided solely by its measured IC50; consult low (below 0.03 µM), moderate (0.03 µM to below 0.4 µM), high (0.4 µM or more)

structure notation | answer label
Cc1ccccc1Nc1nccc(-n2ccnc2-c2ccccc2)n1 | high
Cc1cc(C)cc(Nc2nccc(-n3ccnc3-c3ccccc3)n2)c1 | low
Clc1cccc(Nc2nccc(-n3ccnc3-c3ccccc3)n2)c1 | low
c1ccc(Nc2nccc(-n3ccnc3-c3ccccc3)n2)cc1 | moderate
[O-][n+]1cccc(Nc2nccc(-n3ccnc3-c3ccccc3)n2)c1 | high
FC(F)(F)c1cc(Nc2nccc(-n3ccnc3-c3ccccc3)n2)cc(C(F)(F)F)c1 | moderate
Cc1cc(C)cc(Nc2cc(-n3ccnc3-c3ccccc3)ncn2)c1 | high
c1ccc(-c2nccn2-c2ccnc(Nc3cccnc3)n2)cc1 | moderate
c1ccc(-c2nccn2-c2ccnc(Nc3ccncc3)n2)cc1 | moderate
c1ccc(-c2nccn2-c2ccnc(Nc3ccccn3)n2)cc1 | high
COc1cccc(Nc2nccc(-n3ccnc3-c3ccccc3)n2)c1 | low
Cc1ccc(Nc2nccc(-n3ccnc3-c3ccccc3)n2)cc1 | moderate
Clc1cc(Cl)cc(Nc2nccc(-n3ccnc3-c3ccccc3)n2)c1 | low
CC(=O)N1CCN(Cc2cc(C)cc(Nc3nccc(-n4ccnc4-c4ccccc4)n3)c2)CC1 | moderate
Cc1cc(Nc2nccc(-n3ccnc3-c3ccccc3)n2)cc(C(F)(F)F)c1 | low
Cc1cc(C)cc(Nc2cc(-n3ccnc3-c3ccccc3)ccn2)c1 | high
COc1ccccc1Nc1nccc(-n2ccnc2-c2ccccc2)n1 | moderate
COc1cc(Nc2nccc(-n3ccnc3-c3ccccc3)n2)cc(OC)c1 | low
COc1cc(Nc2nccc(-n3ccnc3-c3ccccc3)n2)cc(C(F)(F)F)c1 | high
FC(F)(F)c1cccc(Nc2nccc(-n3ccnc3-c3ccccc3)n2)c1 | low
Cc1cccc(Nc2nccc(-n3ccnc3-c3ccccc3)n2)c1 | low
Cc1cc(C)cc(Nc2nccc(-n3cc(C)nc3-c3ccccc3)n2)c1 | high
